Data credit: the supplement of paper PMC6555819

Test system: PXR:RXRa (NR concentration 270 nM, RXRa partner concentration 90 nM)
PROTOCOL: PBM binding z-score (relative to random genomic background probes); higher = stronger binding; sequences stand for … in GC…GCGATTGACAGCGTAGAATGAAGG
MEASUREMENT NAME: PBM binding z-score
Give bare numbers.

Hi, could you look up PBM binding z-score for each item in my list?
1. TAGCCTAGGTCATTGAGGGGCCAGTATAGAAAGC
2. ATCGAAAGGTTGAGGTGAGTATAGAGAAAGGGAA
3. CCTACTGGGCCAAAAAGGTCATTTATGCCGATAA
4. TCGAGTAGGTTAGTCGGTGCATTCAGCCAACATA
5. TCATATAGGAAAAAGGTGAAAGTCGGTGTGGTAA
6. TCTATTTGTTGATTAGGGCAACCGAAACAGCGGA

**Result**
[2.36, 0.751, 4.67, 0.147, 0.859, 0.675]

Hi, could you look up PBM binding z-score for each item in my list?
1. ATGGAAAGGTCGAAGGTGAGTATACCCACCCGAA
2. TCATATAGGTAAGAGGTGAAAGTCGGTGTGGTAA
3. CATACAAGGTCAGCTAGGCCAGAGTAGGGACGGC
4. AGTCAAAGTTCTCTAGGTAACGTAAGATTCAGCT
5. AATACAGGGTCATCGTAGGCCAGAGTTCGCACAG
6. CGTCCAAGGTCAATGCTAGGTCAGTGGAAGCATT
7. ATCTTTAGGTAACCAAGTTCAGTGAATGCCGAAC
8. CGAACTAGGTCAGAACAGGCCAGTGAAGGATGAT

**Result**
[2.99, 1.31, 2.51, 0.000883, 5.76, 4.87, 2.06, 0.505]

Hi, could you look up PBM binding z-score for each item in my list?
1. TCATATAGGTAAAGTTGAAAGTCGAACGATATGA
2. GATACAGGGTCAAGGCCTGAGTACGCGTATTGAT
3. CGTCAAAATTCAAGGTAACGTAACAGAAAGCAGC
4. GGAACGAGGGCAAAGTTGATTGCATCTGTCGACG
5. AGAATGAGGTTATACGTAGCTCAGGGAAGAAAGT
6. GGAACGAGGGCATTCGAATTGATAGCATGGCGAT
7. TATACAGGGTCAGAGGCCAGAGTACGAATGTCGA

**Result**
0.661
3.43
-0.0296
1.16
0.653
0.719
2.83
